B1: Peroxisome proliferator-activated receptor delta, residues 71 to 145; numbered along this chain, Q03181 (parent)
chain: NMECRVCGDKASGFHYGVHACEGCKGFFRRTIRMKLEYEKCERSCKIQKKNRNKCQYCRFQKCLALGMSHNAIRF

Variants of: B1
method.notes: abundance fitness (aPCA) (normalised: wild type 0, dead -1); higher = more abundant; growth selection in yeast, the domain comes from the species named
condition.context: Homo sapiens
Label criterion met when abundance fitness is at or above -0.5; anything below gets criterion not met.

Evaluate N51K : abundance fitness at minimum -0.5? criterion met

Evaluate A11W : abundance fitness at minimum -0.5? criterion not met

Evaluate C7P : abundance fitness at minimum -0.5? criterion not met

Evaluate A11F : abundance fitness at minimum -0.5? criterion met

Evaluate R33D : abundance fitness at minimum -0.5? criterion met

Evaluate L36K : abundance fitness at minimum -0.5? criterion met

Evaluate I32N : abundance fitness at minimum -0.5? criterion not met

Evaluate C45K : abundance fitness at minimum -0.5? criterion not met

Evaluate L66I : abundance fitness at minimum -0.5? criterion met

Evaluate M34T : abundance fitness at minimum -0.5? criterion met

Evaluate G67K : abundance fitness at minimum -0.5? criterion met

Evaluate N53R : abundance fitness at minimum -0.5? criterion met

Evaluate Q61P : abundance fitness at minimum -0.5? criterion not met

Evaluate R52Q : abundance fitness at minimum -0.5? criterion met

Evaluate Y16N : abundance fitness at minimum -0.5? criterion met

Evaluate F28M : abundance fitness at minimum -0.5? criterion met

Evaluate G17R : abundance fitness at minimum -0.5? criterion not met

Evaluate Y38R : abundance fitness at minimum -0.5? criterion not met

Evaluate L66P : abundance fitness at minimum -0.5? criterion not met

Evaluate I32A : abundance fitness at minimum -0.5? criterion met

Evaluate N1I : abundance fitness at minimum -0.5? criterion met

Evaluate R74W : abundance fitness at minimum -0.5? criterion met

Evaluate E39Q : abundance fitness at minimum -0.5? criterion met

Evaluate Y16F : abundance fitness at minimum -0.5? criterion met

Evaluate E37R : abundance fitness at minimum -0.5? criterion met

Evaluate K49V : abundance fitness at minimum -0.5? criterion met

Evaluate K62W : abundance fitness at minimum -0.5? criterion not met

Evaluate Y57F : abundance fitness at minimum -0.5? criterion met

Evaluate H19Q : abundance fitness at minimum -0.5? criterion met

Evaluate E22V : abundance fitness at minimum -0.5? criterion met

Evaluate C55P : abundance fitness at minimum -0.5? criterion not met

Evaluate C58N : abundance fitness at minimum -0.5? criterion not met

Evaluate S12E : abundance fitness at minimum -0.5? criterion met

Evaluate N1E : abundance fitness at minimum -0.5? criterion met

Evaluate K40L : abundance fitness at minimum -0.5? criterion met

Evaluate F60L : abundance fitness at minimum -0.5? criterion met

Evaluate R59S : abundance fitness at minimum -0.5? criterion not met

Evaluate V6M : abundance fitness at minimum -0.5? criterion not met

Evaluate V6Y : abundance fitness at minimum -0.5? criterion not met

Evaluate T31N : abundance fitness at minimum -0.5? criterion not met

Evaluate K62G : abundance fitness at minimum -0.5? criterion not met

Evaluate A72W : abundance fitness at minimum -0.5? criterion met

Evaluate G26D : abundance fitness at minimum -0.5? criterion met

Evaluate R33E : abundance fitness at minimum -0.5? criterion met

Evaluate R33P : abundance fitness at minimum -0.5? criterion not met

Evaluate M68I : abundance fitness at minimum -0.5? criterion not met

Evaluate F14M : abundance fitness at minimum -0.5? criterion met

Evaluate Y16R : abundance fitness at minimum -0.5? criterion not met

Evaluate C41R : abundance fitness at minimum -0.5? criterion not met

Evaluate H70G : abundance fitness at minimum -0.5? criterion met

Evaluate E37H : abundance fitness at minimum -0.5? criterion met

Evaluate E39H : abundance fitness at minimum -0.5? criterion met

Evaluate K54T : abundance fitness at minimum -0.5? criterion met

Evaluate R52M : abundance fitness at minimum -0.5? criterion met

Evaluate R5N : abundance fitness at minimum -0.5? criterion met

Evaluate G23K : abundance fitness at minimum -0.5? criterion met

Evaluate C45V : abundance fitness at minimum -0.5? criterion not met

Evaluate S69R : abundance fitness at minimum -0.5? criterion met

Evaluate A20W : abundance fitness at minimum -0.5? criterion not met

Evaluate V6L : abundance fitness at minimum -0.5? criterion not met

Evaluate C63W : abundance fitness at minimum -0.5? criterion not met

Evaluate D9H : abundance fitness at minimum -0.5? criterion not met

Evaluate A20H : abundance fitness at minimum -0.5? criterion not met

Evaluate R43Q : abundance fitness at minimum -0.5? criterion met

Evaluate K46Q : abundance fitness at minimum -0.5? criterion met

Evaluate H70D : abundance fitness at minimum -0.5? criterion met

Evaluate Y57A : abundance fitness at minimum -0.5? criterion met

Evaluate Q61L : abundance fitness at minimum -0.5? criterion met

Evaluate G13E : abundance fitness at minimum -0.5? criterion met

Evaluate L66M : abundance fitness at minimum -0.5? criterion met

Evaluate R29Y : abundance fitness at minimum -0.5? criterion met

Evaluate N71C : abundance fitness at minimum -0.5? criterion met

Evaluate I47W : abundance fitness at minimum -0.5? criterion met

Evaluate A65P : abundance fitness at minimum -0.5? criterion not met

Evaluate V18C : abundance fitness at minimum -0.5? criterion met

Evaluate K35M : abundance fitness at minimum -0.5? criterion met

Cited source: the Human Domainome abundance scans (Beltran et al. 2025)
